# studySystem: Human immunodeficiency virus type 1 integrase (Human immunodeficiency virus 1)
# Sequence (Q7ZJM1 whole entry): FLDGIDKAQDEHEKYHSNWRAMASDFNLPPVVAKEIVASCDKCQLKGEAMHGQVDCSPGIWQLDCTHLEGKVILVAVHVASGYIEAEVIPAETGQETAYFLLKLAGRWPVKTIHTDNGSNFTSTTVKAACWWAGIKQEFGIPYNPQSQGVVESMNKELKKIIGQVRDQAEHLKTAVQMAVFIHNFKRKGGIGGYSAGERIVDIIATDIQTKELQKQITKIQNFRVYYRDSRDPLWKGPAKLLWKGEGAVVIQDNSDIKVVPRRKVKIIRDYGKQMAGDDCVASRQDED
reportedMetric: IC50 (µM)

INSERT INTO results (compound, experimentalresult) VALUES
  ('CCCCCC[C@H]1OC(=O)C2=C1[C@@H](O)[C@@H]1O[C@@H]1[C@@H]2O [INTEGRASONE]', 41);
